Target: human CD3 on cells (human PBMC; Jurkat TCR/CD3 NFAT reporter cells) (human, UniProt P07766 23-207; P04234 22-171; P09693 23-182); note: unit not given here
Sequence (P07766 23-207, chain 1 of 3): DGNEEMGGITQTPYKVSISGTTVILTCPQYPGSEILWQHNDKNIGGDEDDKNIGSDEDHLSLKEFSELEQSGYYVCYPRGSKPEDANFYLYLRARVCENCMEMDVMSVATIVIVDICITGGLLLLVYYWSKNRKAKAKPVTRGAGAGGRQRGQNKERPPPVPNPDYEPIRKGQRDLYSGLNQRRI
Sequence (P04234 22-171, chain 2 of 3): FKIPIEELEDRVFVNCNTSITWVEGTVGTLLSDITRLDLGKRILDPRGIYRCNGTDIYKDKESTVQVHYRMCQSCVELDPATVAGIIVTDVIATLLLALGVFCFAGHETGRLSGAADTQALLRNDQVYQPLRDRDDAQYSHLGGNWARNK
Sequence (P09693 23-182, chain 3 of 3): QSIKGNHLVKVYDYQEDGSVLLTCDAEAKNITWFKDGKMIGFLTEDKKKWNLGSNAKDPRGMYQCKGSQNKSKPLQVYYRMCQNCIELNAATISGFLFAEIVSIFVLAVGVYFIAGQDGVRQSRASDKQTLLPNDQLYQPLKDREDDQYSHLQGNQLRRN
Assay: cell-based or functional assay
PROPERTY LABEL: Emax

- BINDER: "Hu153A6B1-5 (antibody, V domains shown, humanized mAb) VH: EVQLQESGPGLVKPSETLSLTCTVSGFSISSYNIHWVRQPPGKGLEWMGRIRYNGDTSYNSALKSRLTISRDTSKNQVSLKLSSVTAADTAVYYCTRGPYGGSREPLFDYWGQGTMVTVSS VL: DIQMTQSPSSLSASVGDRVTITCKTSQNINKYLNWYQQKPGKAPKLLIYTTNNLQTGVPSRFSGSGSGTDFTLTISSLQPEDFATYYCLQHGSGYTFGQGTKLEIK"
  RECORDED VALUE: 4600
- BINDER: "Hu153A6B1-13 (antibody, V domains shown, humanized mAb) VH: EVQLQESGPGLVKPSETLSLTCTVSGGSISSYNIHWIRQPPGKGLEWIGRIRYNGDTSYNSALKSRVTISVDTSKNQFSLKLSSVTAADTAVYYCARGPYGGSREPLFDYWGQGTMVTVSS VL: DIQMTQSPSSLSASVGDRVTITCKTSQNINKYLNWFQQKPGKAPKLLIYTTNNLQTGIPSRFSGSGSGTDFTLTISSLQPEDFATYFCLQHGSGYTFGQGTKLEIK"
  RECORDED VALUE: 1280
- BINDER: "Hu155A9B1-15 (antibody, V domains shown, humanized mAb) VH: EVQLQESGPGLVKPSETLSLTCTVSGGSISSYNVHWVRQPPGKGLEWMGRVRYNGDTSYNSALKSRLTISRDTSKNQFSLKLSSVTAADTAVYYCARGPYGGSSEPLFDYWGQGTMVTVSS VL: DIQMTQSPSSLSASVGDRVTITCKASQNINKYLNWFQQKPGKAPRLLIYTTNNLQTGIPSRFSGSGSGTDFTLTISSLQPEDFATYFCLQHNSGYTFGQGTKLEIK"
  RECORDED VALUE: 1150
- BINDER: "Hu153A6B1-8 (antibody, V domains shown, humanized mAb) VH: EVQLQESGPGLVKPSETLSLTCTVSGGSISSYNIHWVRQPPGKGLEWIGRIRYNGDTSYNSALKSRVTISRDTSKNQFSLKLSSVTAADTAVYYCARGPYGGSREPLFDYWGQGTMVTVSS VL: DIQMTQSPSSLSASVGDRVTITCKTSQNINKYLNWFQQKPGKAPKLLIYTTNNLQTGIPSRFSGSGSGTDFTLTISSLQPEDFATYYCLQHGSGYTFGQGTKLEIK"
  RECORDED VALUE: 4130

Values were extracted from patent US20240417469A1.
